Where these numbers come from: paper PMC8571282

# Method: in vitro
# Condition Summary: human, CC50, “M2” HAE
Endpoint Name: CC50 at 72 h (µM)
Numbers only, in µM.

stdin: Name the recorded CC50 at 72 h for CC(C)C(=O)OCC1OC(C#N)(c2ccc3c(N)ncnn23)C(OC(=O)C(C)C)C1OC(=O)C(C)C (stereo not shown) .
stdout: 39.7

====

# Method: Cytotoxicity assay (PrestoBlue), VeroE6
# Condition Summary: African green monkey, VeroE6 cells, % cell viability, VeroE6, 100 µM, 72 h
Endpoint Name: viability at 72 h, 100 µM
The number alone won't do; follow it with the unit.

stdin: Name the recorded viability at 72 h, 100 µM for "N#C[C@@]1(c2ccc3c(N)ncnn23)O[C@H](CO)[C@@H](O)[C@H]1O" .
stdout: 66%

====

# Method: in vitro
# Condition Summary: male, human, % cell viability, M6 HAE, 0.046 µM, 72 h
Endpoint Name: viability at 0.046 µM
The number alone won't do; follow it with the unit.

stdin: Name the recorded viability at 0.046 µM for "CCC(CC)COC(=O)[C@H](C)N[P@](=O)(OC[C@H]1O[C@@](C#N)(c2ccc3c(N)ncnn23)[C@H](O)[C@@H]1O)Oc1ccccc1" .
stdout: 90%

====

# Method: in vitro
# Condition Summary: female, human, % cell viability, F3 HAE, 33.333 µM, 72 h
Endpoint Name: viability at 33.333 µM (%)
Answers are plain numbers, in %.

stdin: Name the recorded viability at 33.333 µM for "CCC(CC)COC(=O)[C@H](C)N[P@](=O)(OC[C@H]1O[C@@](C#N)(c2ccc3c(N)ncnn23)[C@H](O)[C@@H]1O)Oc1ccccc1" .
stdout: 84

====

# Method: Cytotoxicity assay (PrestoBlue), “M6” HAE
# Condition Summary: male, human, % cell viability, M6 HAE, 33.333 µM, 72 h
Endpoint Name: viability at 72 h, 33.333 µM (%)
One number for each entry, in %.

stdin: Name the recorded viability at 72 h, 33.333 µM for CC(C)C(=O)OCC1OC(C#N)(c2ccc3c(N)ncnn23)C(OC(=O)C(C)C)C1OC(=O)C(C)C (stereo not shown) [GS-621763] .
stdout: 94

====

# Method: Cytotoxicity assay (PrestoBlue), “M6” HAE
# Condition Summary: human
Endpoint Name: CC50 at 72 h

CC(C)C(=O)OCC1OC(C#N)(c2ccc3c(N)ncnn23)C(OC(=O)C(C)C)C1OC(=O)C(C)C (centres unmarked) | 92.3 µM

Below: the item to evaluate.
stdin: Name the recorded CC50 at 72 h for "N#C[C@@]1(c2ccc3c(N)ncnn23)O[C@H](CO)[C@@H](O)[C@H]1O" .
stdout: > 100 µM

====

# Method: Cytotoxicity assay (PrestoBlue), “M6” HAE
# Condition Summary: human, % cell viability, M6 HAE, 100 µM, 72 h
Endpoint Name: viability at 72 h, 100 µM (%)
Numbers only, in %.

stdin: Name the recorded viability at 72 h, 100 µM for CC(C)C(=O)OCC1OC(C#N)(c2ccc3c(N)ncnn23)C(OC(=O)C(C)C)C1OC(=O)C(C)C (stereo not shown) .
stdout: 42

====

# Method: Cytotoxicity assay (PrestoBlue), VeroE6
# Condition Summary: African green monkey, VeroE6 cells, % cell viability, VeroE6, 0.046 µM, 72 h
Please respond with reported viability at 72 h, 0.046 µM for every item in the list.
Answers are plain numbers, in %.

CC(C)C(=O)OCC1OC(C#N)(c2ccc3c(N)ncnn23)C(OC(=O)C(C)C)C1OC(=O)C(C)C (centres unmarked) | 62

Below: the item to evaluate.
stdin: Name the recorded viability at 72 h, 0.046 µM for "N#C[C@@]1(c2ccc3c(N)ncnn23)O[C@H](CO)[C@@H](O)[C@H]1O" .
stdout: 60

====

# Method: in vitro
# Condition Summary: female, human, % cell viability, F3 HAE, 0.046 µM, 72 h
Endpoint Name: viability at 0.046 µM
The number alone won't do; follow it with the unit.

stdin: Name the recorded viability at 0.046 µM for "CCC(CC)COC(=O)[C@H](C)N[P@](=O)(OC[C@H]1O[C@@](C#N)(c2ccc3c(N)ncnn23)[C@H](O)[C@@H]1O)Oc1ccccc1" .
stdout: 75%

====

# Method: Cytotoxicity assay (PrestoBlue), BHK-21
# Condition Summary: hamster, BHK-21 cells, % cell viability, BHK-21, 3.704 µM, 72 h
Endpoint Name: viability at 72 h, 3.704 µM

stdin: Name the recorded viability at 72 h, 3.704 µM for CC(C)C(=O)OCC1OC(C#N)(c2ccc3c(N)ncnn23)C(OC(=O)C(C)C)C1OC(=O)C(C)C (stereo not shown) [GS-621763] .
stdout: 90%

====

# Method: in vitro
# Condition Summary: female, human, % cell viability, DF2 HAE, 1.235 µM, 72 h
Endpoint Name: viability at 1.235 µM

stdin: Name the recorded viability at 1.235 µM for CC(C)C(=O)OCC1OC(C#N)(c2ccc3c(N)ncnn23)C(OC(=O)C(C)C)C1OC(=O)C(C)C (stereo not shown) .
stdout: 103%

====

# Method: in vitro
# Condition Summary: human, % cell viability, HEp-2, 1.235 µM, 72 h
Endpoint Name: viability at 1.235 µM (%)
One number for each entry, in %.

stdin: Name the recorded viability at 1.235 µM for CCC(CC)COC(=O)[C@H](C)N[P@](=O)(OC[C@H]1O[C@@](C#N)(c2ccc3c(N)ncnn23)[C@H](O)[C@@H]1O)Oc1ccccc1 [remdesivir] .
stdout: 83

====

# Test system: “F3” primary HAE cells
# Method: Cytotoxicity assay (PrestoBlue), “F3” HAE
# Condition Summary: “F3” HAE, 72 h
Endpoint Name: CC50

stdin: Name the recorded CC50 for CC(C)C(=O)OCC1OC(C#N)(c2ccc3c(N)ncnn23)C(OC(=O)C(C)C)C1OC(=O)C(C)C (stereo not shown) .
stdout: 43.8 µM

====

# Method: Cytotoxicity assay (PrestoBlue), “F3” HAE
# Condition Summary: female, human, % cell viability, F3 HAE, 33.333 µM
Endpoint Name: viability at 72 h, 33.333 µM (%)
One number for each entry, in %.

stdin: Name the recorded viability at 72 h, 33.333 µM for CC(C)C(=O)OCC1OC(C#N)(c2ccc3c(N)ncnn23)C(OC(=O)C(C)C)C1OC(=O)C(C)C (stereo not shown) .
stdout: 81

====

# Method: Cytotoxicity assay (PrestoBlue), HEp-2
# Condition Summary: human, HEp-2 cells, % cell viability, HEp-2, 3.704 µM, 72 h
Endpoint Name: viability at 72 h, 3.704 µM (%)
One number for each entry, in %.

stdin: Name the recorded viability at 72 h, 3.704 µM for CC(C)C(=O)OCC1OC(C#N)(c2ccc3c(N)ncnn23)C(OC(=O)C(C)C)C1OC(=O)C(C)C (stereo not shown) .
stdout: 104

====

# Method: in vitro
# Condition Summary: human, % cell viability, M2 HAE, 100 µM, 72 h
Endpoint Name: viability at 100 µM
The number alone won't do; follow it with the unit.

stdin: Name the recorded viability at 100 µM for "CCC(CC)COC(=O)[C@H](C)N[P@](=O)(OC[C@H]1O[C@@](C#N)(c2ccc3c(N)ncnn23)[C@H](O)[C@@H]1O)Oc1ccccc1" .
stdout: 56%

====

# Method: in vitro
# Condition Summary: female, human, % cell viability
Endpoint Name: viability at 72 h, 3.704 µM (%)
Answers are plain numbers, in %.

CC(C)C(=O)OCC1OC(C#N)(c2ccc3c(N)ncnn23)C(OC(=O)C(C)C)C1OC(=O)C(C)C (centres unmarked) | 120

stdin: Name the recorded viability at 72 h, 3.704 µM for "N#C[C@@]1(c2ccc3c(N)ncnn23)O[C@H](CO)[C@@H](O)[C@H]1O" .
stdout: 90

====

# Method: Cytotoxicity assay (PrestoBlue), HCT-8
# Condition Summary: human, HCT-8 cells, % cell viability, HCT-8, 3.704 µM, 72 h
Endpoint Name: viability at 72 h, 3.704 µM (%)
One number for each entry, in %.

stdin: Name the recorded viability at 72 h, 3.704 µM for CC(C)C(=O)OCC1OC(C#N)(c2ccc3c(N)ncnn23)C(OC(=O)C(C)C)C1OC(=O)C(C)C (stereo not shown) .
stdout: 104

====

Please respond with reported CC50 at 72 h for every item in the list.
# Method: Cytotoxicity assay (PrestoBlue), VeroE6
# Condition Summary: African green monkey, VeroE6 cells

N#C[C@@]1(c2ccc3c(N)ncnn23)O[C@H](CO)[C@@H](O)[C@H]1O | > 100 µM

stdin: Name the recorded CC50 at 72 h for CC(C)C(=O)OCC1OC(C#N)(c2ccc3c(N)ncnn23)C(OC(=O)C(C)C)C1OC(=O)C(C)C (centres unmarked) .
stdout: > 100 µM

====

# Method: Cytotoxicity assay (PrestoBlue), “F2” HAE
# Condition Summary: female, human, % cell viability, F2 HAE, 3.704 µM
Endpoint Name: viability at 72 h, 3.704 µM (%)
Answers are plain numbers, in %.

stdin: Name the recorded viability at 72 h, 3.704 µM for CC(C)C(=O)OCC1OC(C#N)(c2ccc3c(N)ncnn23)C(OC(=O)C(C)C)C1OC(=O)C(C)C (stereo not shown) .
stdout: 117
